- STUDY TARGET: human recombinant adrenergic α2A receptor (Homo sapiens)
- Construct: expressed in transfected cells; host or cells: insect Sf9 cells
- Sequence (P08913 1-465): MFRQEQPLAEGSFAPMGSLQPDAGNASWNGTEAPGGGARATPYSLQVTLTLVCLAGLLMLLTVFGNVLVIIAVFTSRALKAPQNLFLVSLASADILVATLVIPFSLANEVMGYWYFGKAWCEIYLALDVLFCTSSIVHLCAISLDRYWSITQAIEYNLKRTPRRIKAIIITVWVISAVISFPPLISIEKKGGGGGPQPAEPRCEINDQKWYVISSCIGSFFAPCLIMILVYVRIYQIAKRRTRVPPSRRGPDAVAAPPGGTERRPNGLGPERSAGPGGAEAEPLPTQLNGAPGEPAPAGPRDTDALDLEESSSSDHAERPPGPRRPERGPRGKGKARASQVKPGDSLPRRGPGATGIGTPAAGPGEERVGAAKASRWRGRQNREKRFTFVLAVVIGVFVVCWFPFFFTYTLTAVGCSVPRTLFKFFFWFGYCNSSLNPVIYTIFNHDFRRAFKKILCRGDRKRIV
- RUN DESCRIPTION: Radioligand binding, adrenergic α2A receptor ([3H]MK-912)
- ASSAY CONDITIONS: 0.1 μM compound; Sf9 cells; 1 nM [3H]MK-912; read-out: Percentage inhibition of ligand binding, Adrenergic α2A
MEASURED QUANTITY: inhibition at 0.1 µM (%)
Numeric answer only, unit % assumed.

Some entries whose results are on file:
[[record]]
cpd_smiles = "Cc1ccc2c(c1)c1c(n2-c2cccc(-c3cccn3C)c2)CCN(C)C1"
study_target = "human recombinant adrenergic α2A receptor (Homo sapiens)"
measured_quantity = "inhibition at 0.1 µM"
scale_unit = "%"
numeric_result = 39

[[record]]
cpd_smiles = "Cc1ccc2c(c1)c1c(n2-c2ccccc2-c2ccc(C)s2)CCN(C)C1"
study_target = "human recombinant adrenergic α2A receptor (Homo sapiens)"
measured_quantity = "inhibition at 0.1 µM"
scale_unit = "%"
numeric_result = 88

[[record]]
cpd_smiles = "Cc1ccc2c(c1)c1c(n2-c2cscc2-c2ccc3cnccc3c2)CCN(C)C1"
study_target = "human recombinant adrenergic α2A receptor (Homo sapiens)"
measured_quantity = "inhibition at 0.1 µM"
scale_unit = "%"
numeric_result = 86


# input Which inhibition at 0.1 µM value is on record for `Cc1ccc2c(c1)c1c(n2-c2ccccc2-c2ccnn2C)CCN(C)C1` ?
# output 72
